For each of the binders below, state its log10 of kon.
tested_target: T1, human VEGF (human, UniProt P15692 207-395, biotinylated (site not stated))
T1 construct: Biotinylated human VEGF generated internally; also called hVEGF; hVEGF-biotin
T1 sequence: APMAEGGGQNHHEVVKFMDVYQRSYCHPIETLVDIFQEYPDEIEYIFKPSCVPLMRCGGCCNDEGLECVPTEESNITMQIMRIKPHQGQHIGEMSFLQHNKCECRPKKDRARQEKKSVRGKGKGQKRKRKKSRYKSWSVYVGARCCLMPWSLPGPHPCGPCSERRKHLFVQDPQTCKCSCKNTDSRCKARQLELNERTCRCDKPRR
assay_overview: Biacore SPR, hVEGF
Hi team, quick reminder: these entries are log10 of kon (M⁻¹ s⁻¹).

Worked cases, log10 of kon given:
binder: HC3T (Fab, V domains shown, Tagged heavy chain CDR variant HC3 with NVS4 light chain) VH: EVQLVESGGGLVQPGGSLRLSCTASGFSLTNYYYMTWVRQAPGKGLEWVGFIDPQNNPYYATWAKGRFTISRDNSKNTLYLQMNSLRAEDTAVYYCAGGNHNSGWGLDIWGQGTLVTVSS VL: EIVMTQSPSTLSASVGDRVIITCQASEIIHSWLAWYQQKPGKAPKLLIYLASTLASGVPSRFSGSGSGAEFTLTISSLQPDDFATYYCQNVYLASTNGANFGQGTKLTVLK
data_value: 8.05
//
binder: HC1.2T (Fab, V domains shown, Tagged heavy chain CDR variant HC1.2 with NVS4 light chain) VH: EVQLVESGGGLVQPGGSLRLSCTASGFSLTSYYYMTWVRQAPGKGLEWVGFIDPQNNPYYATWAKGRFTISRDNSKNTLYLQMNSLRAEDTAVYYCAGGDHNSGWGLDIWGQGTLVTVSS VL: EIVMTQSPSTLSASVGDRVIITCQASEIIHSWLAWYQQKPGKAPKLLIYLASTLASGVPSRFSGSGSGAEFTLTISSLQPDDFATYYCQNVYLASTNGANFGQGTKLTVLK
data_value: 8.04
//
binder: LC1T (Fab, V domains shown, Light chain CDR variant LC1 of NVS4 with tagged NVS4 heavy chain) VH: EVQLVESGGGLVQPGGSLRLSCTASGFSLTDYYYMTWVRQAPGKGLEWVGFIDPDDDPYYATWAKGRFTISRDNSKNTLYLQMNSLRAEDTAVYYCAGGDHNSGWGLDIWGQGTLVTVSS VL: EIVMTQSPSTLSASVGDRVIITCQASQIIHSWLAWYQQKPGKAPKLLIYQASTLAKGVPSRFSGSGSGAEFTLTISSLQPDDFATYYCQNVYLASTNGANFGQGTKLTVLK
data_value: 7.77
//
binder: NVS4 heavy chain variant D31S + Y32K (Fab, V domains shown, CDR variant of NVS4) VH: EVQLVESGGGLVQPGGSLRLSCTASGFSLTSKYYMTWVRQAPGKGLEWVGFIDPDDDPYYATWAKGRFTISRDNSKNTLYLQMNSLRAEDTAVYYCAGGDHNSGWGLDIWGQGTLVTVSS VL: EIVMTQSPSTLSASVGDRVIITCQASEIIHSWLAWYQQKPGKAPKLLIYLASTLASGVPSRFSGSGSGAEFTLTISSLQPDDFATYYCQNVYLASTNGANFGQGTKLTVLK
data_value: 6.71

Lab note: next binder to report on.
**Q:** Requested field: log10 of kon. Item: LC5T (Fab, V domains shown, Light chain CDR variant LC5 with tagged NVS4 heavy chain) VH: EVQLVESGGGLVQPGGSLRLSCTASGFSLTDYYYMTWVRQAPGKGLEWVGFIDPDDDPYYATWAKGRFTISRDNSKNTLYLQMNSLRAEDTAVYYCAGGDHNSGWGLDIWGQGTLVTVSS VL: EIVMTQSPSTLSASVGDRVIITCQASQIIKSWLAWYQQKPGKAPKLLIYQASTLAKGVPSRFSGSGSGAEFTLTISSLQPDDFATYYCQNVYLASTNGANFGQGTKLTVLK
**A:** 8.13
